tested on: CP191; assay: qHTS profiling for inhibitors of Plasmodium falciparum proliferation (AID 504749); note: nearly all actives have a fitted effect of over 60% in size; note: potency is the fitted concentration of half-maximal effect; conditions: P. falciparum in erythrocytes, SYBR Green DNA, 72 h; series mostly up to 28.7 µM
Results filed as inconclusive are left out. Calls of active or inactive are those of the source. Calls come from the whole dose curve; as a rule, active = well fitted inhibition curve with a large enough effect; inconclusive = small, poorly fitted or top-dose-only effect; inactive = flat fitted curve, though single readings scatter. Bridge positions count the residues as written; N and C are the ends. Square brackets hold non-standard residues; d marks the D form. Peptide text beside a SMILES is read from it. * marks the point of attachment. ξ: configuration not given here. ξDab(CH2SO3H) = NC(CCNCS(=O)(=O)O)C(=O)O; Heptanoyl(6-Me) = CC(C)CCCCC(=O)*; Dab = NCC[CH](N)C(=O)O
OBSERVABLE: Potency

O=C(OCC1OC(OC(=O)c2cc(O)c(O)c(OC(=O)c3cc(O)c(O)c(O)c3)c2)[C@@H](OC(=O)c2cc(O)c(O)c(OC(=O)c3cc(O)c(O)c(O)c3)c2)C(OC(=O)c2cc(O)c(O)c(OC(=O)c3cc(O)c(O)c(O)c3)c2)C1OC(=O)c1cc(O)c(O)c(OC(=O)c2cc(O)c(O)c(O)c2)c1)c1cc(O)c(O)c(OC(=O)c2cc(O)c(O)c(O)c2)c1 (stereo partly drawn)
2820 nM (active)
CCC(C)C1NC(=O)C(CCNCS(=O)(=O)O)NC(=O)C(NC(=O)C(CCNCS(=O)(=O)O)NC(=O)C(NC(=O)C(CCNCS(=O)(=O)O)NC(=O)CCCCC(C)C)C(C)O)CCNC(=O)C(C(C)O)NC(=O)C(CCNCS(=O)(=O)O)NC(=O)C(CCNCS(=O)(=O)O)NC(=O)C(C(C)CC)NC1=O (stereo not drawn) ({Heptanoyl(6-Me)}-[ξDab(CH2SO3H)]T[ξDab(CH2SO3H)][Dab][ξDab(CH2SO3H)]II[ξDab(CH2SO3H)][ξDab(CH2SO3H)]T; lactam 4-C; configuration not given here)
inactive
CC(=O)OCC1=C(C(=O)O)N2C(=O)C(NC(=O)Cc3ccccc3)C2SC1 (stereo not drawn)
inactive

###

biological target: Cytochrome P450 3A4 (Homo sapiens); experiment: qHTS Assay for Inhibitors and Substrates of Cytochrome P450 3A4 (AID 884); conditions: recombinant CYP3A4, Luciferin-PPXE luminescence; series mostly up to 57.1 µM; note: nearly all actives have a fitted effect of over 50% in size
Records with an inconclusive call do not appear. Calls of active or inactive are those of the source. Calls come from the whole dose curve; as a rule, active = well fitted inhibition curve with a large enough effect; inconclusive = small, poorly fitted or top-dose-only effect; inactive = no such curve, though single readings can be large or run the other way.
One label from this list, please: active, inactive

Nc1cccc(B(O)O)c1
inactive
CCCCC#CC1C=CC(OC(C)=O)C(COC(C)=O)O1 (configuration not stated)
active
CC(C)(C)NC(=O)C(c1ccc(I)cc1)N(CCN1CCOCC1)C(=O)CCCNC(=O)c1ccccc1 (configuration not stated)
active
CN(C)C(=O)[C@H]1C[C@@H]1[C@H](NC(=O)OCc1ccccc1)c1ccccc1
active
CC(C)CC1(C(=O)NCC2CC2)C=CCN1C(=O)c1ccccc1 (configuration not stated)
active

Hi, do you know how CC1CC[C@@]23CCC4(C)[C@@]5(C)CCC6C(C)(C)C(=O)CC[C@@]6(C)C5C=C[C@@]4(OC2=O)C3C1C (some centres not stated) came out in this test?
inactive

Hi, do you know how CCC1=C(OC(=O)N(CC)CC)N2C(=O)OC(=NCC(=O)OC)[C@]2(Cc2ccccc2)[C@H]2C1=CC[C@H]1C(=O)N(C)C(=O)[C@H]12 came out in this test?
active

Hi, do you know how CNC(=O)[C@@H]1C[C@H]1[C@@H](NC(=O)OCc1ccccc1)c1ccccc1 came out in this test?
active

###

molecular target: Thyroid hormone receptor beta (Homo sapiens) (UniProt P10828); assay: qHTS assay for small molecule antagonists of thyroid hormone receptor beta signaling (AID 588547); conditions: TR-UAS-bla HEK293, beta-lactamase ratio, antagonist mode, 18 h;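 note: cells stimulated with 0.4 nM T3 agonist during compound exposure; % is set by controls: 0 for no effect and ±100 for the full control effect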
Sequence (P10828 whole entry, looked up): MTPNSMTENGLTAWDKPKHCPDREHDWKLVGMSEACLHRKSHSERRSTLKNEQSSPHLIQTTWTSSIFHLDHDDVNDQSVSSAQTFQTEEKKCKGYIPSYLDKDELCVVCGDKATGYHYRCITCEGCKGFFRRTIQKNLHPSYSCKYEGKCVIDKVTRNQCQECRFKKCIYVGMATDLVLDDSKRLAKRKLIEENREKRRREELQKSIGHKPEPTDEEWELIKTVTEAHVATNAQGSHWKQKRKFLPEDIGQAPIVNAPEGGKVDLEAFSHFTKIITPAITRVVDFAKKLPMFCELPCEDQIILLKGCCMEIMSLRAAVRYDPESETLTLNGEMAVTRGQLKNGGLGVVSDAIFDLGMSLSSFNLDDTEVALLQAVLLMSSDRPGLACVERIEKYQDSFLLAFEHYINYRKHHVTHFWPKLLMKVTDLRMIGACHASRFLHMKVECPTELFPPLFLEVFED
Inconclusive results are not listed.
activity change % (negative = inhibition) values, listed per item
API: value field is a number in %; no unit string.

Output activity change % (negative = inhibition) of C=C(C)C(=O)OCCOC(=O)C(=C)C
17.4

Output activity change % (negative = inhibition) of CCN(Cc1cccc(S(=O)(=O)O)c1)c1ccc(C(=C2C=CC(=[N+](CC)Cc3cccc(S(=O)(=O)[O-])c3)C=C2)c2ccccc2)cc1
-4.54

###

biological target: Cytochrome P450 3A4 (Homo sapiens) (UniProt P08684); assay: qHTS Assay for Inhibitors and Substrates of Cytochrome P450 3A4 (AID 884); details: recombinant CYP3A4, Luciferin-PPXE luminescence; series mostly up to 57.1 µM; note: nearly all actives have a fitted effect of over 50% in size; for activity change, negative = inhibition: % is set by controls: 0 for no effect and ±100 for the full control effect
Sequence (P08684 whole entry, looked up): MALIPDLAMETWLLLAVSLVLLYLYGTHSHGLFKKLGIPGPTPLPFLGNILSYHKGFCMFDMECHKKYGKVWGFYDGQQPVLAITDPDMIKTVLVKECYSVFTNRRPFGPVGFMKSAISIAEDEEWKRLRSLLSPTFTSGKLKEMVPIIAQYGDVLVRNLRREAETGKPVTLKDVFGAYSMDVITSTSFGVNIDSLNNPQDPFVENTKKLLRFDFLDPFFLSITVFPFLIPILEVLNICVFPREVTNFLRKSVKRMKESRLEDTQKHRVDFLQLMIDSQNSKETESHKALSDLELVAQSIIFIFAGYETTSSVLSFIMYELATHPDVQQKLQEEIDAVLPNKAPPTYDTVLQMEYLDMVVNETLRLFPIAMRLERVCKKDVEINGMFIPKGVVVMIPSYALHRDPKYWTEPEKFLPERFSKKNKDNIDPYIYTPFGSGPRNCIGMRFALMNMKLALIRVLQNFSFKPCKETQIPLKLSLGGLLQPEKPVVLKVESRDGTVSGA
Results filed as inconclusive are left out. Active and inactive are the calls of the source. The call rests on the fitted dose curve; in most records, active means well fitted inhibition curve with a large enough effect; inconclusive means small, poorly fitted or top-dose-only effect; inactive means no such curve, though single readings can be large or run the other way.
OBSERVABLE: activity change, negative = inhibition

Please review the entries below; each comes with its answer.
CC1C=CCCOC1c1ccccc1 (stereo unspecified)
-13.6% [at 11.4 µM] (inactive)
O=C(/C=C/c1ccccc1)N1CCCC1CO (stereo unspecified)
-20.7% [at 11.4 µM] (inactive)

Output activity change, negative = inhibition of CCOC(=O)OCC1OC(c2ccccc2)C=CC1Oc1ccc2oc(=O)cc(C)c2c1 (stereo unspecified)
-10.6% [at 11.4 µM] (inactive)

Output activity change, negative = inhibition of COC(=O)NC(c1ccco1)[C@@]1(C(=O)OC)CCCC1=O (stereo partly specified)
-10.6% [at 11.4 µM] (inactive)

Output activity change, negative = inhibition of CC(C)CC1OCCC=CC1C (stereo unspecified)
-2.57% [at 11.4 µM] (inactive)

Output activity change, negative = inhibition of COC(=O)NC(c1cccc(F)c1)[C@@]1(C(=O)OC)CCCC1=O (stereo partly specified)
-15.7% [at 11.4 µM] (inactive)

Output activity change, negative = inhibition of COC1C(O)COC1/C=C/c1ccccc1 (stereo unspecified)
-19.7% [at 11.4 µM] (inactive)

Output activity change, negative = inhibition of CC1(C)Oc2cc3c(cc2O1)OC(C)(C)O3
-26.4% [at 11.4 µM] (inactive)

Output activity change, negative = inhibition of COC(=O)NC(/C(C(=O)OC)=C(\C)NCc1ccccc1)c1ccc(Cl)cc1 (stereo unspecified)
-24.6% [at 11.4 µM] (inactive)

Output activity change, negative = inhibition of COC(=O)NC(/C=C/c1ccco1)[C@@]1(C(=O)OC)CCCC1=O (stereo partly specified)
2.43% [at 11.4 µM] (inactive)

Output activity change, negative = inhibition of CC1(C)OC(C(O)(c2cc(F)c(F)c(F)c2)c2cc(F)c(F)c(F)c2)C(C(O)(c2cc(F)c(F)c(F)c2)c2cc(F)c(F)c(F)c2)O1 (stereo unspecified)
-15% [at 11.4 µM] (inactive)

###

activation values, listed per item
experiment: qHTS assay for small molecule activators of the nuclear factor-kappa B (NF-kB) signaling pathway (AID 651749); details: NF-kB-bla ME-180 cells, beta-lactamase FRET ratio, 16 h; hits give high values; note: % of control where 0% means no effect
Records with an inconclusive call do not appear.
API: value field is a number in %; no unit string.

Please review the entries below; each comes with its answer.
CSc1ccc(Cl)cc1
-1.66
CC(C)(N=C=O)c1cccc(C(C)(C)N=C=O)c1
-0.946
Nc1cc(Cl)c(O)c(Cl)c1
-1.35
CCCC/C=C\CCCCCCCCO
-0.809
CCC(C)OC(=O)N1CCCCC1CCO (stereo not drawn)
-1.57

Output activation of O=C(O)C(Oc1ccc(Cl)cc1)Oc1ccc(Cl)cc1
0.776

Output activation of CCCCOCCOCCOCCO
-0.915

Output activation of C[Si]1(C)O[Si](C)(C)O[Si](C)(C)O1
-0.149

Output activation of CC(Cl)(Cl)C(=O)OCCOc1cc(Cl)c(Cl)cc1Cl
-1.51

Output activation of C=CCCCCCCCCC=O
-0.972

Output activation of C=CCOC(=O)CC(C)C
-0.542

Output activation of Cc1ccc(N=Nc2c(O)ccc3ccccc23)c([N+](=O)[O-])c1
-0.237

Output activation of CC1COCc2cc3c(cc21)C(C)(C)C(C)C3(C)C (stereo not drawn)
1.51

Output activation of CCN(Cc1cccc(S(=O)(=O)O)c1)c1ccc(C(=C2C=CC(=[N+](CC)Cc3cccc(S(=O)(=O)[O-])c3)C=C2)c2ccccc2)cc1
-0.828

Output activation of OCCC(F)(F)C(F)(F)C(F)(F)C(F)(F)C(F)(F)C(F)(F)C(F)(F)C(F)(F)F
1.52

Output activation of CCCCCCCCCCCCCCC
-1.21

Output activation of O=C(Nc1ccccc1)c1cc(Cl)ccc1O
4.05

Output activation of CC1(C)C(=O)N(Br)C(=O)N1Cl
-2.38

Output activation of CCCCCCc1ccc(N)cc1
0.791

Output activation of C=C(C)C(=O)OCCC[Si](Cl)(Cl)Cl
-0.259

Output activation of O=[N+]([O-])C(CO)(CO)CO
0.34

Output activation of C[Si](Cl)(Cl)c1ccccc1
0.494

Output activation of O=C(O)CN(CCO)CCN(CC(=O)O)CC(=O)O
-1.52

Output activation of CCCCC(CC)CN1C(=O)C2C3C=CC(C3)C2C1=O (stereo not drawn)
0.646
